Reported EC50 by item:
System: phospho-akt (Thr308) in PC-3 cells
Experimental protocol: Inhibition of phospho-akt (Thr308) in PC-3 cells, MSD phospho-akt 308 ELISA kit
Format: cell-based
Assay context: Homo sapiens; inhibition of P308 Akt in PC-3 cells using MSD, 2 hours, no serum; read-out: EC50

Examples from the recorded data:
>  <Compound>
C[C@H](NC(=O)c1cc(C#N)cnc1NCc1ccc(-c2cnc(N)c(C(=O)NCCCN(C)C)n2)cc1)c1ccc(F)cc1

>  <System under test>
phospho-akt (Thr308) in PC-3 cells

>  <Readout type>
EC50

>  <Measurement>
1 to 10 µM

$$$$
>  <Compound>
C[C@H](NC(=O)c1nc(C#N)cnc1NCc1ccc(-c2ccc(N)nn2)cc1)c1ccc(F)c(F)c1

>  <System under test>
phospho-akt (Thr308) in PC-3 cells

>  <Readout type>
EC50

>  <Measurement>
1 to 10 µM

$$$$
>  <Compound>
C[C@H](NC(=O)c1cc(C#N)cnc1N[C@H](CC(N)=O)c1ccc(-c2c[nH]c3ncnc(N)c23)cc1)c1ccc(F)cc1

>  <System under test>
phospho-akt (Thr308) in PC-3 cells

>  <Readout type>
EC50

>  <Measurement>
> 10 µM

$$$$
>  <Compound>
Nc1n[nH]c2ncc(-c3ccc(CNc4ncc(C(F)(F)F)cc4C(=O)Nc4cccc(C(F)(F)F)c4)cc3)cc12

>  <System under test>
phospho-akt (Thr308) in PC-3 cells

>  <Readout type>
EC50

>  <Measurement>
1 to 10 µM

$$$$
>  <Compound>
C[C@H](NC(=O)c1nc(C#N)cnc1NCC1CCC(c2cc3c(N)ncnc3n2C)CC1)c1ccc(F)c(F)c1 (stereo partly shown)

>  <System under test>
phospho-akt (Thr308) in PC-3 cells

>  <Readout type>
EC50

>  <Measurement>
1 to 10 µM

$$$$

// query Annotate the compound C[C@H](NC(=O)c1cc(C#N)cnc1NCc1ccc(-c2ccc(NCCN(C)C)nc2)cc1)c1ccc(F)cc1 with its measured EC50.
// result > 10 µM

// query Please report the measured EC50 for Nc1n[nH]c2ncc(-c3ccc(CNc4ncc(C(F)(F)F)cc4C(=O)Nc4cccnc4)cc3)cc12
// result < 1 µM

====

Test system: phospho-akt (Thr308) in PC-3 cells
Experimental protocol: Inhibition of phospho-akt (Thr308) in PC-3 cells, MSD phospho-akt 308 ELISA kit
Assay type: cell-based
Assay context: Homo sapiens; inhibition of P308 Akt in PC-3 cells using MSD, 2 hours, no serum; read-out: EC50
pEC50: −log10 of the molar value.
Readout type: pEC50

>  <Smiles entry>
C[C@H](NC(=O)c1cc(C#N)cnc1NCc1ccc(-c2cnc3[nH]nc(N)c3c2)cc1F)c1ccc(F)cc1

>  <pEC50>
> 6.00

$$$$
>  <Smiles entry>
Nc1ccc(-c2ccc(CNc3nccc4ncn(Cc5ccc(F)c(F)c5)c(=O)c34)cc2)cn1

>  <pEC50>
5.00 to 6.00

$$$$
>  <Smiles entry>
C[C@H](NC(=O)c1cc(C#N)cnc1NCc1ccc(-c2cnc(NCCO)cn2)cc1)c1ccc(F)cc1

>  <pEC50>
5.00 to 6.00

$$$$

// query Give pEC50 for C[C@H](NC(=O)c1cc(C#N)cnc1NCc1ccc(-c2cnc(N)c(CCCN3CCOCC3)n2)cc1)c1ccc(F)cc1
// result > 6.00

// query Dear colleague, please send me the reported pEC50 for C[C@H](NC(=O)c1nc(C#N)cnc1NCc1ccc(-c2cnc3[nH]c(=O)[nH]c3c2)cc1)c1ccc(F)c(F)c1 when you can.
// result > 6.00

// query Answer with the recorded pEC50 for the compound listed here: Nc1n[nH]c2ncc(-c3ccc(CNc4ncc(C(F)(F)F)cc4C(=O)Nc4ccc(F)cc4)cn3)cc12
// result > 6.00

// query Please list pEC50 recorded for the compound C[C@H](NC(=O)c1cc(C#N)cnc1NCc1ccc(-c2cnc(N)c(N3CCNCC3)n2)cc1)c1ccc(F)cc1
// result > 6.00

// query Indicate its recorded pEC50; the compound in question is N#Cc1cnc(NCc2ccc(-c3cnc4[nH]nc(N)c4c3)cc2)c(C(=O)NCc2cncc(F)c2)c1
// result > 6.00

// query Give pEC50 for the following compound: N#Cc1cnc(NCc2ccc(-c3cnc4[nH]ncc4c3)cc2)c(C(=O)NCc2ccc(F)cc2)c1
// result > 6.00

// query Return the recorded pEC50 value; entry: C[C@H](NC(=O)c1cc(C#N)cnc1NCc1ccc(-c2cnc(N)c(C(=O)NCCN3CCN(C)CC3)n2)cc1)c1ccc(F)cc1
// result > 6.00

// query Return value of pEC50 for input Nc1cnc(-c2ccc(CNc3ncc(C(F)(F)F)cc3C(=O)Nc3ccc(F)cc3)cc2)cn1 , no commentary.
// result > 6.00

// query Item C[C@H](NC(=O)c1nc(C#N)cnc1NCc1ccc(-c2cnc3[nH]nc(N)c3c2)nc1)c1ccc(F)c(F)c1 : provide pEC50
// result > 6.00

// query Kindly indicate its recorded pEC50. Item: N#Cc1ccc(NC(=O)c2cc(C(F)(F)F)cnc2NCc2ccc(-c3cnc4[nH]nc(N)c4c3)cc2)cc1
// result > 6.00

// query Return pEC50 (reported value) for this compound: C[C@H](NC(=O)c1cc(C#N)cnc1NCc1ccc(-c2cnc3[nH]nc(CN)c3c2)cc1)c1ccc(F)cc1
// result 5.00 to 6.00

// query Determine from records and report pEC50 for C[C@H](NC(=O)c1cccnc1NCc1ccc(-c2ccc(N)nc2)cc1)c1ccc(F)c(F)c1
// result 5.00 to 6.00
